Overview of recorded IC50 for various molecules
study system: hNav1.7 (Homo sapiens, UniProt Q15858)
Construct: expressed in transfected cells
Sequence (Q15858 1-1977 isoform Q15858-3): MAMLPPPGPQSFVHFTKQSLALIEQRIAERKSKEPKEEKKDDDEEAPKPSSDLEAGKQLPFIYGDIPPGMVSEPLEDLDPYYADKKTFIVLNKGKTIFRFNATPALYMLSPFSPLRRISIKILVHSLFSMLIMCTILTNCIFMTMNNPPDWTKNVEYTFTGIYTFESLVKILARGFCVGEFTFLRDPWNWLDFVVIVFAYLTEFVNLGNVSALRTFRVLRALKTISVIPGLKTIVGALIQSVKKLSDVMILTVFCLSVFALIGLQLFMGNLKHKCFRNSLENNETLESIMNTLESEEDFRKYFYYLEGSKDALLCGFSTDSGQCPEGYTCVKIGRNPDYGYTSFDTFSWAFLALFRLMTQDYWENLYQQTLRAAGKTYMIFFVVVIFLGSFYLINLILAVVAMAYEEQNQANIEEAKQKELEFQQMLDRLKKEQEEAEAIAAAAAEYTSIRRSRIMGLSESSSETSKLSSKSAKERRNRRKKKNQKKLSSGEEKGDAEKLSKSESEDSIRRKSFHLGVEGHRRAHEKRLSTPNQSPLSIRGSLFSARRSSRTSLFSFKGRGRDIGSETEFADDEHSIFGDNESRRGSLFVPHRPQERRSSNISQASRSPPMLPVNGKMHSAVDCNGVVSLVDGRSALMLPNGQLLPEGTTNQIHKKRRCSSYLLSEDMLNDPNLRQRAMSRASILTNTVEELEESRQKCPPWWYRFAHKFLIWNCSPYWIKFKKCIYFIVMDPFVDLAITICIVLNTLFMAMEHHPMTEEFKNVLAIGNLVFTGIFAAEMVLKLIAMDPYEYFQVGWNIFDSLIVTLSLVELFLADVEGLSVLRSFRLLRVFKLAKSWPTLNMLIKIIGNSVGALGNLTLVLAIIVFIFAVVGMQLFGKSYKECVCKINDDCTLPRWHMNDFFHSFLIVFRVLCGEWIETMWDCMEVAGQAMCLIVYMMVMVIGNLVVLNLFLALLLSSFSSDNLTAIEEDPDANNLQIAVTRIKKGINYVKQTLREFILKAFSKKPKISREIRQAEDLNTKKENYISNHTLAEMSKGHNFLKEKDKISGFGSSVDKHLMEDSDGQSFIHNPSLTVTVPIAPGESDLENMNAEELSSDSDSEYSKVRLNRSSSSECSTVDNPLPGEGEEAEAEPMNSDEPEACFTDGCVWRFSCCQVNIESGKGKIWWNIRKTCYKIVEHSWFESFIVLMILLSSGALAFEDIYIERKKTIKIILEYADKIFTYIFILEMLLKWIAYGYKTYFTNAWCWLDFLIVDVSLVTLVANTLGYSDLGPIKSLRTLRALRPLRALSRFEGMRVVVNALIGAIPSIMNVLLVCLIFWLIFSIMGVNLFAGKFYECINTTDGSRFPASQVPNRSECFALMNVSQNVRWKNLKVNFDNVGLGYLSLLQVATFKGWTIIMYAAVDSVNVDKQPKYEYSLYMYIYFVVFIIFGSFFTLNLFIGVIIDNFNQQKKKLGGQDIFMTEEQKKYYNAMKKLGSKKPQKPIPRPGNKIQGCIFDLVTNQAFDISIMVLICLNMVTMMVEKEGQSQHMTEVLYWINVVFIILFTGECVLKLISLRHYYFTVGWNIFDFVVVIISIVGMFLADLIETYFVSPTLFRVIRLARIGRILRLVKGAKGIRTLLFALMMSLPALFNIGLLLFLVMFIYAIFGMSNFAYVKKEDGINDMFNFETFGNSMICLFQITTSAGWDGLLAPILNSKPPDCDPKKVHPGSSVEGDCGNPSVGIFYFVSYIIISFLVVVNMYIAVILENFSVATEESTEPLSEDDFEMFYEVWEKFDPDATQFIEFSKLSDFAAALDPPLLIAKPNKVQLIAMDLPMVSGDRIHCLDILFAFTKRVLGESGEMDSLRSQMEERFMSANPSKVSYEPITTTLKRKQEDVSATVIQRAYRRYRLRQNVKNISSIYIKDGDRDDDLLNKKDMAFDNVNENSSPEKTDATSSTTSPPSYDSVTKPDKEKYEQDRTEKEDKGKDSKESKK
Sequence (Q07699 19-218 partner): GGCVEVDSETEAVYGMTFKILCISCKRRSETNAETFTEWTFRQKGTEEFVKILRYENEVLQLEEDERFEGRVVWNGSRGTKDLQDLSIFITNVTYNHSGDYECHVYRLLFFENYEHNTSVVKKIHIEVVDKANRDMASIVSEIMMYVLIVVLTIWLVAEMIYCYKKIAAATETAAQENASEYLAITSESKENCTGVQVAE
assay comment: Tritiated compound binding (LBA) to membranes from cells expressing hNav1.7 and the β1 subunit, competitive binding
condition info: competitive binding vs 100 pM [3H]compound, 18 h, room temperature, membranes with hNav1.7 and β1 subunit
Method: Tritiated Compound Binding to Membranes Isolated from Cells that Heterologously Express hNav1.7 and the β1 Subunit Preparation of membranes containing recombinantly expressed sodium channels: Frozen recombinant cell pellets were thawed on ice and diluted to 4 times the cell pellet weight with ice cold 50 mM Tris HCl, pH 7.4 buffer. […] Protein concentrations were determined by Bradford Assay and the membranes were stored at −80° C. […]
Structures can show the parent of a compound that is named as a salt.
Numbers only; they are read as nM.

molecule	unit label	test result
O=C(O)[C@@H]1CCCN1C(=O)c1cc(C2CC2)c(OCC23CCC(F)(CC2)CC3)cc1F	nM	410
O=C(O)[C@@H]1CCCN1C(=O)c1cc(Cl)c(OC2C3CC4CC2CC(Cl)(C4)C3)cc1F (single isomer, unassigned)	nM	8900
O=C(O)[C@@H]1CCCN1C(=O)c1cc(C2CC2)c(CN2CC(Oc3cc(Cl)cc(Cl)c3)C2)cc1F	nM	430

# evaluate next
For this molecule ( CC(C)COc1ncc(Oc2cc(F)c(C(=O)N3CCC[C@H]3C(=O)O)cc2C2CC2)cc1C1CC1 [Example 98, trifluoroacetic acid salt] ), measured IC50 is 440

----------
study system: human NaV1.7 (Homo sapiens, UniProt Q15858)
Construct: permanently transfected with an expression vector containing the full-length cDNA coding for the desired human sodium channel α-subunit
assay comment: Patch voltage clamp electrophysiology assay (EP), NaV1.7
condition info: HEK-293 cells stably expressing NaV1.7 with β1 subunit; whole-cell patch clamp, membrane potential −60 mV (inactivated state)
pIC50: −log10 of the molar value. Counter-ions that a name gives are not always drawn.
Where pIC50 equals or exceeds 6, the correct label is t; where it does not, the label is f.

Check out these entries, answers already filled in.
compound	label value
O=C(O)[C@H]1CSCN1C(=O)c1cc(C2CC2)c(OCC23CC4CC(CC(C4)C2)C3)cc1F [Example 50]	t
O=C(O)[C@@H]1CC(F)(F)CN1C(=O)c1cc(C2CC2)c(OCC23CC4CC(CC(C4)C2)C3)cc1F [Example 160]	t
C[C@@H](O)[C@H](NC(=O)c1cc(C2CC2)c(OCC23CC4CC(CC(C4)C2)C3)cc1F)C(=O)O [Example 57]	f
C[C@H](c1cc(Cl)cc(Cl)c1)N1CCC[C@H](COc2cc(F)c(C(=O)N3CCC[C@H]3C(=O)O)cc2C2CC2)C1 (single isomer, unassigned) [Example 73a]	f
C[C@H]1C[C@@H](C(=O)O)N(C(=O)c2cc(C3CC3)c(OCC34CC5CC(CC(C5)C3)C4)cc2F)C1 [Example 148]	t
CC1(COc2cc(F)c(C(=O)N[C@H](C(=O)O)C3CC3)cc2C2CC2)CN([C@@H](c2ccccc2)c2cc(Cl)cc(Cl)c2)C1 (single isomer, unassigned) [Example 114]	f
CC(C)COc1ncc(Oc2cc(F)c(C(=O)N3CCC[C@H]3C(=O)O)cc2Cl)cc1Cl [Example 97, trifluoroacetic acid salt]	t

Next up:
Tell me whether pIC50 is at least 6 here: C[C@H]1OCN(C(=O)c2cc(C3CC3)c(OCC3CCN(Cc4cc(C(F)(F)F)cc(Cl)c4F)CC3)cc2F)[C@@H]1C(=O)O [Example 227]
t

----------
study system: hNav1.7 (Homo sapiens, UniProt Q15858)
assay comment: Tritiated compound binding (LBA) to membranes from cells expressing hNav1.7 and the β1 subunit, competitive binding
condition info: competitive binding vs 100 pM [3H]compound, 18 h, room temperature, membranes with hNav1.7 and β1 subunit
Overview of recorded pIC50 for various molecules
Answer as the number alone; pIC50 is minus log10 of concentration in mol/L.

molecule	study system	pIC50
O=C(O)[C@@H]1C[C@H](O)CN1C(=O)c1cc(C2CC2)c(OCC23CC4CC(CC(C4)C2)C3)cc1F [Example 46]	hNav1.7 (Homo sapiens, UniProt Q15858)	6.82
O=C(O)[C@@H]1CCCN1C(=O)c1cc(C2CC2)c(OC2C3CC4CC2CC(Cl)(C4)C3)cc1F (single isomer, unassigned) [Example 80]	hNav1.7 (Homo sapiens, UniProt Q15858)	6.23

# evaluate next
Summary: O=C(O)[C@@H]1CCCN1C(=O)c1ccc(OCC23CC4CC(CC(C4)C2)C3)c(C(F)(F)F)c1 , hNav1.7 (Homo sapiens, UniProt Q15858), pIC50 = 6.23

----------
study system: human NaV1.7 (Homo sapiens)
Construct: permanently transfected with an expression vector containing the full-length cDNA coding for the desired human sodium channel α-subunit
assay comment: Patch voltage clamp electrophysiology assay (EP), NaV1.7
condition info: HEK-293 cells stably expressing NaV1.7 with β1 subunit; whole-cell patch clamp, membrane potential −60 mV (inactivated state)
recorded metric: IC50 (nM)
Numbers only; they are read as nM.

molecule	IC50 (nM)
C[C@@]1(C(=O)O)CCCN1C(=O)c1cc(C2CC2)c(OCC23CC4CC(CC(C4)C2)C3)cc1F [Example 51]	920

For this molecule ( CC(C)[C@@H](C(=O)O)N(C)C(=O)c1cc(C2CC2)c(OCC23CC4CC(CC(C4)C2)C3)cc1F [Example 67] ), measured IC50 is 3000

For this molecule ( CC1(COc2cc(F)c(C(=O)N3CCC[C@H]3C(=O)O)cc2C2CC2)CCC2(CC1)CC2 [Example 58] ), measured IC50 is 630

----------
Overview of recorded pIC50 for various compounds
study system: human NaV1.7 (Homo sapiens)
Construct: permanently transfected with an expression vector containing the full-length cDNA coding for the desired human sodium channel α-subunit
assay comment: Patch voltage clamp electrophysiology assay (EP), NaV1.7
condition info: HEK-293 cells stably expressing NaV1.7 with β1 subunit; whole-cell patch clamp, membrane potential −60 mV (inactivated state)
Answer as the number alone; pIC50 is minus log10 of concentration in mol/L.

Guide cases for pIC50, answers given:
compound	pIC50
CC1(COc2cc(F)c(C(=O)N3C[C@H](F)C[C@H]3C(=O)O)cc2C2CC2)CN([C@@H](c2ccccc2)c2cc(Cl)cc(Cl)c2)C1 (single isomer, unassigned) [Example 117]	6.29
O=C(O)[C@@H]1COC(=O)N1C(=O)c1cc(C2CC2)c(OCC23CC4CC(CC(C4)C2)C3)cc1F [Example 133]	4.74
C[C@@H]1C[C@@H](C(=O)O)N(C(=O)c2cc(C3CC3)c(OCC34CC5CC(CC(C5)C3)C4)cc2F)C1 [Example 150]	5.92

Summary: CO[C@H]1CCN(C(=O)c2cc(C3CC3)c(OCC34CC5CC(CC(C5)C3)C4)cc2F)[C@@H]1C(=O)O [Example 76] , human NaV1.7 (Homo sapiens), pIC50 = 6.00

Summary: C[C@@H](c1cc(Cl)cc(Cl)c1)N1CCC(COc2cc(F)c(C(=O)N3CCC[C@H]3C(=O)O)cc2C2CC2)CC1 (single isomer, unassigned) [Example 79a] , human NaV1.7 (Homo sapiens), pIC50 = 6.16

Summary: CO[C@@H]1CN(C(=O)c2cc(C3CC3)c(OCC34CC5CC(CC(C5)C3)C4)cc2F)[C@H](C(=O)O)[C@H]1C [Example 207] , human NaV1.7 (Homo sapiens), pIC50 = 6.42

----------
study system: human NaV1.7 (Homo sapiens, UniProt Q15858)
Construct: permanently transfected with an expression vector containing the full-length cDNA coding for the desired human sodium channel α-subunit
assay comment: Patch voltage clamp electrophysiology assay (EP), NaV1.7
condition info: HEK-293 cells stably expressing NaV1.7 with β1 subunit; whole-cell patch clamp, membrane potential −60 mV (inactivated state)
pIC50: −log10 of the molar value.
Where pIC50 equals or exceeds 6, the correct label is Fulfilled; where it does not, the label is Not fulfilled.

compound	study system	label value
O=C(O)[C@@H]1CCCN1C(=O)c1cc(C2CC2)c(OCC2CCN([C@H](c3cc(Cl)cc(Cl)c3)C(F)(F)F)CC2)cc1F (single isomer, unassigned) [Example 123a]	human NaV1.7 (Homo sapiens, UniProt Q15858)	Fulfilled
CC(C)[C@H](NC(=O)c1cc(C2CC2)c(COc2cc(Cl)cc(OC(F)(F)F)c2)cc1F)C(=O)O	human NaV1.7 (Homo sapiens, UniProt Q15858)	Not fulfilled
C[C@@]1(COc2cc(F)c(C(=O)N3CCC[C@H]3C(=O)O)cc2C2CC2)CCN(Cc2cc(F)cc(Cl)c2)C1 (single isomer, unassigned) [Example 137a]	human NaV1.7 (Homo sapiens, UniProt Q15858)	Not fulfilled

Tell me whether pIC50 is at least 6 here: O=C(O)[C@@H]1C[C@@H](F)CN1C(=O)c1cc(C2CC2)c(OCC2CCN(Cc3c(Cl)cccc3Cl)CC2)cc1F
Fulfilled

Tell me whether pIC50 is at least 6 here: C[C@@H]1[C@H](F)CN(C(=O)c2cc(C3CC3)c(OCC34CC5CC(CC(C5)C3)C4)cc2F)[C@@H]1C(=O)O [Example 210a]
Not fulfilled
